B1: Azoarcus group I ribozyme (parent)
chain: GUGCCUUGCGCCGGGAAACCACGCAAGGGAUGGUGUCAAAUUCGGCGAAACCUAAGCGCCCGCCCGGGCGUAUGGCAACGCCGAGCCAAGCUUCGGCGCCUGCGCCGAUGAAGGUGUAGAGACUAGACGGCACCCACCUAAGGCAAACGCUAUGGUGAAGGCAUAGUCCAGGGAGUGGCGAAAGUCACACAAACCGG

- Variants of: B1
- measurementDescription: reverse-splicing fitness (ratio to wild type); higher = more active; in vitro selection; Mg2+ level not given
Kind request: treat 0.008 as inclusive, so reverse-splicing fitness at 0.008 or higher is y, anything lower is n.

                   residuechange  class
0  A111G A120C A145U C169G U176A      y

Prompt: I'd appreciate it if you could say whether A120U A145C C150G C169U U176G has reverse-splicing fitness at least equal to 0.008.
Response: n

Prompt: I'd appreciate it if you could say whether C82U A120U A145G C150A C169A U176C has reverse-splicing fitness at least equal to 0.008.
Response: n

Prompt: I'd appreciate it if you could say whether A111C C150U C169U U176A has reverse-splicing fitness at least equal to 0.008.
Response: y

Prompt: I'd appreciate it if you could say whether C82A A120G A145C C169A U176G has reverse-splicing fitness at least equal to 0.008.
Response: n

Prompt: I'd appreciate it if you could say whether C82U A111C A120C A145G C150U C169A has reverse-splicing fitness at least equal to 0.008.
Response: y

Prompt: I'd appreciate it if you could say whether C82U A111C A120G A145U C150A C169U U176G has reverse-splicing fitness at least equal to 0.008.
Response: n

Value source: the RNAGym collection of RNA variant scans (doi:10.1093/molbev/msab373)
